Target: T1, rhesus CD40 expressed on HEK293A cells (rhesus monkey, UniProt P25942 21-277 (human entry))
T1 construct: also called HEK293A/rhesusCD40
T1 chain: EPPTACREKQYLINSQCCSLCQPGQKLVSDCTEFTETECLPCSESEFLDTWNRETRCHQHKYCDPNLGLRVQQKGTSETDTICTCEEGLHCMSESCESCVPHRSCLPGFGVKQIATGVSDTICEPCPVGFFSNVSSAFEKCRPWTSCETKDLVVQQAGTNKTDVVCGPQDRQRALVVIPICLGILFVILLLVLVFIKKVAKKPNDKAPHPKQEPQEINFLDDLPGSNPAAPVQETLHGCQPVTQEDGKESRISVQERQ
Experiment: FACS, HEK293A/rhesusCD40 cells
measurement.name: EC50 (µg/mL)
Return type: number; implicit unit µg/mL.

Examples with their reported EC50 follow.
1. 13A2 (mouse monoclonal antibody) (antibody, V domains shown) VH: EVKLEQSGPGLVKPSQSLSLTCSVTGYSITTNYYWNWIRQFPGNKLEWMGYINYDGSNNYNPSLKNRISITRDTSKNQFFLKLNSVTTEDTATYYCARLDYWGQGTSVTVSS VL: DIVMTQSPLSLPVSLGDQASISCRSSQSLENSNGNTFLNWFLQKPGQSPQLLIYKVSNRFSGVLDRFSGTGSGTDFTLTISRVEAEDLGVYFCLQVTHVPFTFGSGTKLEIK: 0.0843
2. 77D9 (mouse monoclonal antibody) (antibody, V domains shown) VH: QVKLEESGGGLVKPGGSLKLSCAASGFTFRNYAMSWVRQSPGERLEWVAEVSGSGYYTYYPDTVTGRFTISRDNANNTLYLEVSSLRSEDTAMYYCTSRAYWGQGTLVTVSA VL: IVMTQSPTLSLPVSLGDQASISCRSSQSIVLTNGNTYLEWYLQRPGQSPKLLIYKVSNRFSGVPDRFSGSGSGTDFTLKISRVEAEDLGVYYCFQGSHVPYTFGGGTKLEIK: 0.117

Now for the binder whose EC50 we want.
Complete the entry with EC50 for 50F6 (mouse monoclonal antibody) (antibody, V domains shown) VH: QVQLEQSGDDLVKPGASVKLSCKASGYTFTTYWINWIKQRPGQGLEWIGRISPGSGSTHYNEMFKGKATLTVDTSSSTAYIQLSSLSSEDSAVYFCTRNDYWGQGTTLTVSS VL: DIVLTQSPLSLPVSLGDQASISCRSSQSIVNSNGNTYLEWYLQKPGQSPKLLIYKVSNRFSGVPDRFSGSGSGTDFTLKISRVEAEDLGVYYCFQGSHVPLTFGAGTKLELK
0.137
